The values you see were collected from patent US9260429B2.

Molecular target: human recombinant histamine H1 receptor (Homo sapiens)
Construct: expressed in transfected cells; host or cells: CHO cells
Sequence (P35367 whole entry): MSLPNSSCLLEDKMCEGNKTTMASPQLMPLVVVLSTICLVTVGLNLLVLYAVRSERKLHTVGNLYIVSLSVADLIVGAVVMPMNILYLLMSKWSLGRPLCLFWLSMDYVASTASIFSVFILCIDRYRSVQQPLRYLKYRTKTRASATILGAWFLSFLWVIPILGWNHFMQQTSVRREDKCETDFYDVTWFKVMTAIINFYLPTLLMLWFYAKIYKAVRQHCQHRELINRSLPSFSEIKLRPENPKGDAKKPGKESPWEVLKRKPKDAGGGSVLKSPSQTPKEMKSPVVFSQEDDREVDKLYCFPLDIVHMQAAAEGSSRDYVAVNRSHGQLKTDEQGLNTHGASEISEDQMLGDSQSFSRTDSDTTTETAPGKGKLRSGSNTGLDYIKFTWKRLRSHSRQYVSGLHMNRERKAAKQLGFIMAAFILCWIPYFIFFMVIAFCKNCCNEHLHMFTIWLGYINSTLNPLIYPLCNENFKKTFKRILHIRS
Test: Histamine H1 radioligand binding ([3H]Pyrilamine)
Settings: compound concentration 1 μM; read-out: Percentage inhibition of ligand binding to H1 receptor
recorded-endpoint: inhibition at 1 µM
# output: numeric value plus its unit

Here are 3 compounds together with their reported answers.
* Cc1ccc2c(c1)c1c(n2/C=C/c2ccccc2)CN(C)CC1 | 99%
* C/C(=C\n1c2c(c3cc(C)ccc31)CCN(C)C2C)c1ccccc1F (stereo not shown) | 79%
* C/C(=C\n1c2c(c3cc(C)ccc31)CCN(C)C2)c1ccc(F)cc1 | 42%

Now let's try a different one.
Documented inhibition at 1 µM of C/C(=C\n1c2c(c3cc(Cl)ccc31)CCN(C)C2)c1ccc(F)cc1 : 48%
